# System: human prostatic cancer cell line PC-3
# ASSAY_TEXT: MTT assay, growth inhibition of PC-3 cells
# Type: cell-based
# DETAILS: 96-hr culture, read-out: IC50 ± SD, PC-3
pIC50: −log10 of the molar value.
EXPERIMENTAL_ENDPOINT: pIC50

// below: answered compounds
{"SMILES_DATA": "CS(=O)(=O)N1CCN(Cc2cc3c(N4CCOCC4)nc(-c4cnc(N)nc4)nn3c2)CC1", "VALUE_REPORTED": 5.93}
{"SMILES_DATA": "CC(=O)N1CCN(Cc2cc3c(N4CCOCC4)nc(-c4cnc(N)nc4)nn3c2)CC1", "VALUE_REPORTED": 6.85}

[a] C[C@H](O)C(=O)N1CCN(Cc2cc3c(N4CCOCC4)nc(-c4cnc(N)nc4)nn3c2)CC1
[b] CS(=O)(=O)N1CCN(Cc2cc3c(N4CCOCC4)nc(-c4cccc5[nH]ccc45)nn3c2)CC1
-- ask Out of a and b , name the one with the higher pIC50. Bench note: the answer is the label of the chosen record.
-- reply a
(a: 6.70, b: 6.29)
